Biological target: recombinant human galectin-4 (Homo sapiens, UniProt P56470)
Construct: cDNA encoding full-length human galectin-4 was amplified from an EST clone; made in house; host or cells: E. coli BL21 (DE3)pLysS
Sequence (P56470 whole entry): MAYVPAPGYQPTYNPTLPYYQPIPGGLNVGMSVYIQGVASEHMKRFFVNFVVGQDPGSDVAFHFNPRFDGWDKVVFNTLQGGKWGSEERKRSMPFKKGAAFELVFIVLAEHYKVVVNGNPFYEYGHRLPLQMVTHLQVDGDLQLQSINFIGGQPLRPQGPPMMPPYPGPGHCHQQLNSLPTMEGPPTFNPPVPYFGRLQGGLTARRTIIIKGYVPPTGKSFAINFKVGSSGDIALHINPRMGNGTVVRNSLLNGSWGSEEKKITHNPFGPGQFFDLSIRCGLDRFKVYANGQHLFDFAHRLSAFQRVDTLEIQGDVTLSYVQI
Assay: SPR (BIAcore) equilibrium binding to immobilized galectin-4
Conditions: SPR assay
observation_type: binding to galectin-4 (in words)

>>> val("OC[C@H]1O[C@H](O[C@H]2[C@H](O)[C@@H](O)[C@H](O)O[C@@H]2CO)[C@H](O)[C@@H](O)[C@@H]1O [Maltose, reference compound]")
"unable to bind"
>>> val("OC[C@H]1O[C@@](CO)(O[C@H]2O[C@H](CO)[C@@H](O)[C@H](O)[C@H]2O)[C@@H](O)[C@@H]1O [Sucrose, reference compound]")
"unable to bind"
